# MEASUREMENT_NOTES: clinical
# PROTOCOL_CONDITIONS: human, in vivo, po, 62.5 mg/m2
OBSERVABLE: Cmax (ng/mL)
Your answer should be a plain number; it is taken to be in ng/mL.

Write down Cmax measured for item C[C@]12O[C@H](C[C@]1(O)CO)n1c3ccccc3c3c4c(c5c6ccccc6n2c5c31)CNC4=O
4500

* * *

# MEASUREMENT_NOTES: clinical
# PROTOCOL_CONDITIONS: human, in vivo, po, 25 mg/m2
OBSERVABLE: Tmax (h)
Your answer should be a plain number; it is taken to be in h.

Write down Tmax measured for item C[C@]12O[C@H](C[C@]1(O)CO)n1c3ccccc3c3c4c(c5c6ccccc6n2c5c31)CNC4=O
1.5

* * *

# MEASUREMENT_NOTES: clinical
# PROTOCOL_CONDITIONS: human, in vivo, po, 92.5 mg/m2
OBSERVABLE: half-life
Note to self: number, then unit, no commentary.

Write down half-life measured for item C[C@]12O[C@H](C[C@]1(O)CO)n1c3ccccc3c3c4c(c5c6ccccc6n2c5c31)CNC4=O
4.3 h

* * *

# MEASUREMENT_NOTES: Plasma pharmacokinetics of lestaurtinib
# PROTOCOL_CONDITIONS: human, po, 92.5 mg/m2
OBSERVABLE: AUC(0-t) (ng·h/mL)
Your answer should be a plain number; it is taken to be in ng·h/mL.

Write down AUC(0-t) measured for item C[C@]12O[C@H](C[C@]1(O)CO)n1c3ccccc3c3c4c(c5c6ccccc6n2c5c31)CNC4=O [lestaurtinib, Lestaurtinib]
37100

* * *

# MEASUREMENT_NOTES: Plasma pharmacokinetics of lestaurtinib
# PROTOCOL_CONDITIONS: human, po, 85 mg/m2
OBSERVABLE: Tmax (h)
Your answer should be a plain number; it is taken to be in h.

Write down Tmax measured for item C[C@]12O[C@H](C[C@]1(O)CO)n1c3ccccc3c3c4c(c5c6ccccc6n2c5c31)CNC4=O
1

* * *

# MEASUREMENT_NOTES: Plasma pharmacokinetics of lestaurtinib
# PROTOCOL_CONDITIONS: human, po, 77.5 mg/m2
OBSERVABLE: Tmax (h)
Your answer should be a plain number; it is taken to be in h.

Write down Tmax measured for item C[C@]12O[C@H](C[C@]1(O)CO)n1c3ccccc3c3c4c(c5c6ccccc6n2c5c31)CNC4=O
2

* * *

# MEASUREMENT_NOTES: clinical
# PROTOCOL_CONDITIONS: human, in vivo, po, 62.5 mg/m2
OBSERVABLE: AUC(0-inf)

Write down AUC(0-inf) measured for item C[C@]12O[C@H](C[C@]1(O)CO)n1c3ccccc3c3c4c(c5c6ccccc6n2c5c31)CNC4=O
28900 ng·h/mL

* * *

# MEASUREMENT_NOTES: Plasma pharmacokinetics of lestaurtinib
# PROTOCOL_CONDITIONS: human, po, 77.5 mg/m2
OBSERVABLE: Cmax

Write down Cmax measured for item C[C@]12O[C@H](C[C@]1(O)CO)n1c3ccccc3c3c4c(c5c6ccccc6n2c5c31)CNC4=O
3680 ng/mL

* * *

# MEASUREMENT_NOTES: clinical
# PROTOCOL_CONDITIONS: human, in vivo, po, 55 mg/m2
OBSERVABLE: AUC(0-t)
Note to self: number, then unit, no commentary.

Write down AUC(0-t) measured for item C[C@]12O[C@H](C[C@]1(O)CO)n1c3ccccc3c3c4c(c5c6ccccc6n2c5c31)CNC4=O
34900 ng·h/mL

Data provenance: paper PMC4238911
